- system_tested: OR9Q2 (Homo sapiens)
- Construct: expressed in transfected cells; host or cells: HEK293
- Sequence (Q8NGE9 whole entry): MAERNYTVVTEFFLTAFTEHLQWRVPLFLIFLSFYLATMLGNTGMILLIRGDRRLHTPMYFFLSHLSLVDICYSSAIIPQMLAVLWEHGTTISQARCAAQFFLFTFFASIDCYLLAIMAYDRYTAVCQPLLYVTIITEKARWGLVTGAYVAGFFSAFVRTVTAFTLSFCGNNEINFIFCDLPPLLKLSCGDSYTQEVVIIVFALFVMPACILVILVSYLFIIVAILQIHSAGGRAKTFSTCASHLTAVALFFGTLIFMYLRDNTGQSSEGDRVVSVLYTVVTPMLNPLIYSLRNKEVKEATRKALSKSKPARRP
- method_summary: Luciferase reporter gene assay, OR9Q2-expressing HEK293 cells
- Assay type: cell-based
- particulars: FIG. 2, 5B, 5C

- compound: "Cc1ccc2ncccc2c1"
  responsiveness of OR9Q2 (fold increase): "have responsiveness"
- compound: "Cc1ccc(OC(=O)C(C)C)cc1 [p-cresyl isobutyrate, (4-methylphenyl)2-methylpropanoate]"
  responsiveness of OR9Q2 (fold increase): "have responsiveness"
- compound: "Cc1ccc(O)cc1"
  responsiveness of OR9Q2 (fold increase): "have responsiveness"
- compound: "CC(=O)Oc1ccc(C)cc1 [p-cresyl acetate, (4-methylphenyl)acetate]"
  responsiveness of OR9Q2 (fold increase): "have responsiveness"
